Assay method text: Solubility measurement (DMSO solution method), McIlvaine buffer pH 4.5 or 6.8
Type: physicochemical
Test parameters: aqueous buffer, kinetic from dmso stock; McIlvaine buffer pH 4.5; DMSO stock diluted to 250 μM; 24 h shaking at ambient temperature; read-out: solubility pH 4.5
Below is a list of entries, each paired with its recorded solubility at 24 h value.
Property: solubility at 24 h

1. C[C@H](Oc1cc(-n2cc3c(n2)CN(C)C3)nc(-c2noc3c2CCC[C@@]32CCCc3sc(N)c(C#N)c32)n1)[C@@H]1CCCN1C [II-174] = > 149 µg/mL
2. C[C@H](Oc1cc(N2CC[C@H](N(C)C)C2)nc(-c2noc3c2CCC[C@@]32CCCc3sc(N)c(C#N)c32)n1)[C@@H]1C[C@@H](F)CN1C [II-15] = > 144 µg/mL
3. C[C@H](Oc1cc(C2CCOCC2)nc(-c2noc3c2CCC[C@@]32CCCc3sc(N)c(C#N)c32)n1)[C@@H]1CCCN1C [II-76] = > 122 µg/mL
4. CC(C)NC(=O)Cc1ccn(-c2cc(O[C@@H](C)[C@@H]3CCCN3C)nc(-c3noc4c3CCC[C@@]43CCCc4sc(N)c(C#N)c43)n2)n1 [II-182] = > 148 µg/mL
5. C[C@H](Oc1cc(-n2ccc(-c3ccccn3)n2)nc(-c2noc3c2CCC[C@@]32CCCc3sc(N)c(C#N)c32)n1)[C@@H]1CCCN1C [II-119] = < 1 µg/mL
6. C[C@H](Oc1cc(N2CCNC3(COC3)C2)nc(-c2noc3c2CCC[C@@]32CCCc3sc(N)c(C#N)c32)n1)[C@@H]1CCCN1C [II-31] = > 151 µg/mL
7. C[C@H](Oc1cc(N2CCN3CCC3C2)nc(-c2onc3c2CCC[C@@]32CCCc3sc(N)c(C#N)c32)n1)[C@@H]1CCCN1C (stereo partly drawn) [I-9] = > 149 µg/mL
8. C[C@H](Oc1cc(N2C[C@H](C)N[C@@H](C)C2)nc(-c2noc3c2CCC[C@@]32CCCc3sc(N)c(C#N)c32)n1)[C@@H]1CCCN1C [II-56] = > 144 µg/mL
9. Cc1nccn1-c1cc(O[C@@H](C)[C@@H]2CCCN2C)nc(-c2noc3c2CCC[C@@]32CCCc3sc(N)c(C#N)c32)n1 [II-79] = > 154 µg/mL
10. C[C@H](Oc1cc(N2CCC[C@@H](O)C2)nc(-c2noc3c2CCC[C@@]32CCCc3sc(N)c(C#N)c32)n1)[C@@H]1CCCN1C [II-59] = > 133 µg/mL
11. C[C@H]1CN(C)CCCN1c1nc(-c2onc3c2CCC[C@@]32CCCc3sc(N)c(C#N)c32)cc(N2CCN(C)C3(CC3)C2)n1 [I-42] = > 141 µg/mL
12. C[C@H](Oc1cc(N2C[C@H](C)NC3(CC3)C2)nc(-c2onc3c2CCC[C@@]32CCCc3sc(N)c(C#N)c32)n1)[C@@H]1CCCN1C [I-8] = > 146 µg/mL

* * *

Below is a list of entries, each paired with its recorded solubility at 24 h value.
Assay method text: Solubility measurement (DMSO solution method), McIlvaine buffer pH 4.5 or 6.8
Type: physicochemical
Test parameters: aqueous buffer, kinetic from dmso stock; McIlvaine buffer pH 6.8; DMSO stock diluted to 250 μM; 24 h shaking at ambient temperature; read-out: solubility pH 6.8
Method: The DMSO solution is diluted with an aqueous medium (Mcllvaine buffer with pH=4.5 or 6.8) to a final concentration of 250 μM. After 24 h of shaking at ambient temperature a potentially formed precipitate is removed by filtration. The concentration of the test compound in the filtrate is determined by LC-UV methods by calibrating the signal to the signal of a reference solution with complete dissolution of the test compound in acetonitrile/water (1:1) with known concentration.
Property: solubility at 24 h

1. C[C@H](Oc1cc(N2CCNC3(CCCC3)C2)nc(-c2noc3c2CCC[C@@]32CCCc3sc(N)c(C#N)c32)n1)[C@@H]1CCCN1C [II-41] = > 130 µg/mL
2. C[C@H](Oc1cc([C@@H]2CCN(C)C2)nc(-c2noc3c2CCC[C@@]32CCCc3sc(N)c(C#N)c32)n1)[C@@H]1CCCN1C [II-37] = > 152 µg/mL
3. C[C@H](Oc1cc(-c2ccn(C[C@@H](C)O)n2)nc(-c2onc3c2CCC[C@@]32CCCc3sc(N)c(C#N)c32)n1)[C@@H]1CCCN1C [I-30] = > 141 µg/mL
4. C[C@H]1CN(C)CCCN1c1cc(N2CC[C@H](N(C)C)C2)nc(-c2noc3c2CCC[C@@]32CCCc3sc(N)c(C#N)c32)n1 [II-16] = > 132 µg/mL
5. C[C@H](Oc1cc(N2C[C@@H](N(C)C)[C@@H](F)C2)nc(-c2noc3c2CCC[C@@]32CCCc3sc(N)c(C#N)c32)n1)[C@@H]1CCCN1C [II-11] = > 141 µg/mL
6. C[C@H](Oc1nc(-c2onc3c2CCC[C@@]32CCCc3sc(N)c(C#N)c32)cc(N2CCNC3(CC3)C2)n1)[C@@H]1CCCN1C [I-2] = > 131 µg/mL
7. C[C@H](Oc1cc(-n2ccc(C#N)n2)nc(-c2noc3c2CCC[C@@]32CCCc3sc(N)c(C#N)c32)n1)[C@@H]1CCCN1C [II-102] = < 1 µg/mL
8. C[C@H](Oc1cc(N2CCN3CCC3C2)nc(-c2onc3c2CCC[C@@]32CCCc3sc(N)c(C#N)c32)n1)[C@@H]1CCCN1C (stereo partly drawn) [I-9] = > 147 µg/mL
9. C[C@H](Oc1cc(N2CCN(CCO)CC2)nc(-c2noc3c2CCC[C@@]32CCCc3sc(N)c(C#N)c32)n1)[C@@H]1CCCN1C [II-8] = > 132 µg/mL

Measured values drawn from patent US20240174690A1 for this set.
